biological target: partially purified aldose reductase enzyme obtained from human placenta (Homo sapiens, UniProt P15121); construct: partially purified aldose reductase enzyme obtained from human placenta; from tissue; host or cells: human placenta; assay: inhibition of aldose reductase enzyme activity (procedure of S. Hayman et al. as modified by K. Sestanj et al.); type: biochemical; details: 10^-5 M; read-out: Percent Inhibition (%) of aldose reductase enzyme activity
Label class 1 for high-side inhibition at 10 µM (at or above 90%) and class 0 for low-side inhibition at 10 µM (below it).

// query Please tell me: is the compound O=C(O)Cc1nn(Cc2nc3cc(F)cc(F)c3s2)c(=O)c2cccnc12 [Example 17] at or over 90% in terms of inhibition at 10 µM?
// result class 0

// query Please tell me: is the compound O=C(O)Cc1nn(Cc2nc3cc(F)ccc3s2)c(=O)c2cccnc12 [Example 16] at or over 90% in terms of inhibition at 10 µM?
// result class 1

// query Please tell me: is the compound O=C(O)Cc1nn(Cc2nc3cc(Br)ccc3o2)c(=O)c2cccnc12 [Example 18] at or over 90% in terms of inhibition at 10 µM?
// result class 1

// query Please tell me: is the compound O=C(O)Cc1nn(Cc2cc3c(Cl)cccc3s2)c(=O)c2cccnc12 [Example 19] at or over 90% in terms of inhibition at 10 µM?
// result class 0

// query Please tell me: is the compound O=C(O)Cc1nn(Cc2ccc(Br)cc2F)c(=O)c2cccnc12 [Example 21] at or over 90% in terms of inhibition at 10 µM?
// result class 0

// query Please tell me: is the compound O=C(O)Cc1nn(Cc2noc(-c3ccccc3C(F)(F)F)n2)c(=O)c2cccnc12 [Example 20] at or over 90% in terms of inhibition at 10 µM?
// result class 0

---

molecular target: partially purified aldose reductase enzyme obtained from human placenta (Homo sapiens, UniProt P15121); construct: partially purified aldose reductase enzyme obtained from human placenta; from tissue; host or cells: human placenta; assay: inhibition of aldose reductase enzyme activity (procedure of S. Hayman et al. as modified by K. Sestanj et al.); assay type: biochemical; settings: 10^-6 M; read-out: Percent Inhibition (%) of aldose reductase enzyme activity
Assay Metric: inhibition at 1 µM
Include the unit right after the number.

// query Which inhibition at 1 µM is reported for this compound? O=C(O)Cc1nn(Cc2cc3c(Cl)cccc3s2)c(=O)c2cccnc12 [Example 19]
// result 60%

// query Which inhibition at 1 µM is reported for this compound? O=C(O)Cc1nn(Cc2nc3cc(C(F)(F)F)ccc3s2)c(=O)c2cccnc12 [Example 15]
// result 81%

// query Which inhibition at 1 µM is reported for this compound? O=C(O)Cc1nn(Cc2noc(-c3ccccc3C(F)(F)F)n2)c(=O)c2cccnc12 [Example 20]
// result 72%

// query Which inhibition at 1 µM is reported for this compound? O=C(O)Cc1nn(Cc2nc3cc(F)cc(F)c3s2)c(=O)c2cccnc12 [Example 17]
// result 65%

// query Which inhibition at 1 µM is reported for this compound? O=C(O)Cc1nn(Cc2nc3cc(Br)ccc3o2)c(=O)c2cccnc12 [Example 18]
// result 87%

// query Which inhibition at 1 µM is reported for this compound? O=C(O)Cc1nn(Cc2ccc(Br)cc2F)c(=O)c2cccnc12 [Example 21]
// result 76%

// query Which inhibition at 1 µM is reported for this compound? O=C(O)Cc1nn(Cc2nc3cc(F)ccc3s2)c(=O)c2cccnc12 [Example 16]
// result 91%
